The measured values listed here are drawn from patent US9926297B2.

Molecular target: human muscarinic M1 receptor (Homo sapiens, UniProt P11229)
Sequence (P11229 1-460): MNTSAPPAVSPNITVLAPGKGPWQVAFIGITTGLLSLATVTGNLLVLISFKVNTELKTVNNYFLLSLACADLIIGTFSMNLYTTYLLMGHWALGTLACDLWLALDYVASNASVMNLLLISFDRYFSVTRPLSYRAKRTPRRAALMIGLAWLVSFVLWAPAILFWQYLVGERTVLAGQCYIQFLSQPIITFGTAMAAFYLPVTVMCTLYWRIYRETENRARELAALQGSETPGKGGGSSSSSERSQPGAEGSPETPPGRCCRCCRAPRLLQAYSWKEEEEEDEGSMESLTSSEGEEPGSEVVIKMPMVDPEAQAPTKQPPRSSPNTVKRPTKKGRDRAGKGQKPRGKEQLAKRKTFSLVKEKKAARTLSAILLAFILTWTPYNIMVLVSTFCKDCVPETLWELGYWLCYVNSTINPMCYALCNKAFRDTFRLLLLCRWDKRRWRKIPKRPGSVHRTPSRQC
Test: Alphascreen Surefire phospho-ERK1/2 functional assay, M1
Format: cell-based
Conditions: CHO cells stably expressing human M1; phospho-ERK1/2; * = variable results; read-out: pEC50 M1 (converted)
OBSERVATION TYPE: EC50 (nM)
Use nM as the unit, but write only the number.

CCOC(=O)N1CCC2(CC(N3CCC(c4nnn[nH]4)CC3)C2)C1 (single isomer, unassigned) [1-31 Isomer 2]; 2510

The compound listed as CCOC(=O)N1CCC2(CC(N3CCC(N4CCNC4=O)CC3)C2)C1 (single isomer, unassigned) [2-124 Isomer 2] has a reported EC50 of 631

get_value(item= CCOC(=O)N1CCC2(CC(N3CCC(c4c(C)ccnc4OC)CC3)C2)C1 (single isomer, unassigned) [3-11 Isomer 2] , readout=EC50) returns 39.8

The value of EC50 measured for the compound CCOC(=O)N1CCC2(CC(N3CCC([C@@H]4CCCN4C(=O)CCNC(=O)OCc4ccccc4)CC3)C2)C1 (single isomer, unassigned) [2-65 Isomer 2] turned out to be 158

Consider CCOC(=O)N1CCC2(CC(N3CCC(N4CCC[C@@H]4C(F)F)CC3)C2)C1 (single isomer, unassigned) [2-103 Isomer 2] . Its measured EC50 is 200

Kindly note the recorded EC50 for CCOC(=O)N1CCC2(CC(N3CCC(C4CCCN4C(=O)C(F)(F)F)CC3)C2)C1 (single isomer, unassigned) [2-4 Isomer 2] , which is 316
